Value source: the supplement of paper PMC10307832

# Test system: NCI-H1755
# PROCEDURE_SUMMARY: relative viability (nuclei count vs DMSO), 5 days (fraction); higher = more cells survive
# MEASUREMENT_SETUP: first compound 2.53 µM
EXPERIMENTAL_READOUT: relative viability
Reply with the value as a number alone.

I'd like to know its relative viability. The compound in question is CCCCCCCCCCCC1=C(O)C(=O)C=C(O)C1=O [Embelin] + COc1cccc2cc(-c3nc([C@H]4CC[C@H](C(=O)O)CC4)n4ncnc(N)c34)[nH]c12 [OSI-027] (partner 0.5 µM)
0.634

// same read-out, input: CCCCCCCCCCCC1=C(O)C(=O)C=C(O)C1=O [Embelin] + CCNC(=O)c1noc(-c2cc(C(C)C)c(O)cc2O)c1-c1ccc(CN2CCOCC2)cc1 [Luminespib] (partner 0.01 µM)
0.637

// same read-out, input: CCCCCCCCCCCC1=C(O)C(=O)C=C(O)C1=O [Embelin] + C[C@]1(O)C[C@@H](c2nc(-c3ccc4ccc(-c5ccccc5)nc4c3)c3c(N)nccn32)C1 [Linsitinib] (partner 1 µM)
1.07

---

# Test system: HOP-62
# PROCEDURE_SUMMARY: relative viability (nuclei count vs DMSO), 5 days (fraction); higher = more cells survive
# MEASUREMENT_SETUP: first compound 0.4 µM
EXPERIMENTAL_READOUT: relative viability
Reply with the value as a number alone.

I'd like to know its relative viability. The compound in question is C[C@@H]1CN(CC(=O)Nc2ccc3c(c2)Cc2cccc(-c4cc(=O)cc(N5CCOCC5)o4)c2S3)C[C@H](C)O1 + Nc1nc2[nH]cc(CCc3ccc(C(=O)N[C@@H](CCC(=O)O)C(=O)O)cc3)c2c(=O)[nH]1 [Pemetrexed] (partner 0.2 µM)
0.317

// same read-out, input: COc1cc(N2CCC(C(N)=O)CC2)ccc1Nc1nc(N)c(Cl)c(Nc2ccccc2S(=O)(=O)C(C)C)n1 [HG-5-88-01] + C[C@@H](Oc1cc(-c2cnn(C3CCNCC3)c2)cnc1N)c1c(Cl)ccc(F)c1Cl [Crizotinib] (partner 1 µM)
0.83

// same read-out, input: COc1cc(N2CCC(C(N)=O)CC2)ccc1Nc1nc(N)c(Cl)c(Nc2ccccc2S(=O)(=O)C(C)C)n1 [HG-5-88-01] + CS(=O)(=O)N1CCN(Cc2cc3nc(-c4cccc5[nH]ncc45)nc(N4CCOCC4)c3s2)CC1 [Pictilisib] (partner 1 µM)
0.827

// same read-out, input: Clc1ccc(Nc2nnc(Cc3ccncc3)c3ccccc23)cc1 [Vatalanib] + NC(=O)Nc1cc(-c2cccc(F)c2)sc1C(=O)N[C@H]1CCCNC1 [AZD7762] (partner 0.2 µM)
0.603

---

# Tested on: LOU-NH91
# PROCEDURE_SUMMARY: relative viability (nuclei count vs DMSO), 5 days (fraction); higher = more cells survive
# MEASUREMENT_SETUP: first compound 1.265 µM
For each entry below, report its relative viability value.
Reply with the value as a number alone.

I'd like to know its relative viability. The molecule in question is Clc1ccc(Nc2nnc(Cc3ccncc3)c3ccccc23)cc1 [Vatalanib] + CC(C)C[C@H](NC(=O)[C@H](Cc1ccccc1)NC(=O)c1cnccn1)B(O)O [Bortezomib] (partner 0.002 µM)
0.493

// same read-out, input: COc1cc(N2CCC(C(N)=O)CC2)ccc1Nc1nc(N)c(Cl)c(Nc2ccccc2S(=O)(=O)C(C)C)n1 [HG-5-88-01] + CC(=O)c1c(C)c2cnc(Nc3ccc(N4CCNCC4)cn3)nc2n(C2CCCC2)c1=O [Palbociclib] (partner 0.5 µM)
0.509

// same read-out, input: COc1cc(N2CCC(C(N)=O)CC2)ccc1Nc1nc(N)c(Cl)c(Nc2ccccc2S(=O)(=O)C(C)C)n1 [HG-5-88-01] + Cc1nc(Nc2ncc(C(=O)Nc3c(C)cccc3Cl)s2)cc(N2CCN(CCO)CC2)n1 [Dasatinib] (partner 0.075 µM)
0.321

// same read-out, input: COc1cc(N2CCC(C(N)=O)CC2)ccc1Nc1nc(N)c(Cl)c(Nc2ccccc2S(=O)(=O)C(C)C)n1 [HG-5-88-01] + COc1cccc2cc(-c3nc([C@H]4CC[C@H](C(=O)O)CC4)n4ncnc(N)c34)[nH]c12 [OSI-027] (partner 0.5 µM)
0.442

// same read-out, input: COc1cc(N2CCC(C(N)=O)CC2)ccc1Nc1nc(N)c(Cl)c(Nc2ccccc2S(=O)(=O)C(C)C)n1 [HG-5-88-01] + CCNC(=O)c1noc(-c2cc(C(C)C)c(O)cc2O)c1-c1ccc(CN2CCOCC2)cc1 [Luminespib] (partner 0.01 µM)
0.35

// same read-out, input: COc1cc(N2CCC(C(N)=O)CC2)ccc1Nc1nc(N)c(Cl)c(Nc2ccccc2S(=O)(=O)C(C)C)n1 [HG-5-88-01] + CS(=O)(=O)CCNCc1ccc(-c2ccc3ncnc(Nc4ccc(OCc5cccc(F)c5)c(Cl)c4)c3c2)o1 [Lapatinib] (partner 2 µM)
0.592

// same read-out, input: Clc1ccc(Nc2nnc(Cc3ccncc3)c3ccccc23)cc1 [Vatalanib] + CC1(C)CCC(c2ccc(Cl)cc2)=C(CN2CCN(c3ccc(C(=O)NS(=O)(=O)c4ccc(N[C@H](CCN5CCOCC5)CSc5ccccc5)c(S(=O)(=O)C(F)(F)F)c4)cc3)CC2)C1 [Navitoclax] (partner 0.5 µM)
0.612

// same read-out, input: Clc1ccc(Nc2nnc(Cc3ccncc3)c3ccccc23)cc1 [Vatalanib] + O=C(CCCCCCC(=O)Nc1ccccc1)NO [Vorinostat] (partner 1 µM)
0.783

// same read-out, input: COc1cc(N2CCC(C(N)=O)CC2)ccc1Nc1nc(N)c(Cl)c(Nc2ccccc2S(=O)(=O)C(C)C)n1 [HG-5-88-01] + O=C(c1cc(Cc2n[nH]c(=O)c3ccccc23)ccc1F)N1CCN(C(=O)C2CC2)CC1 [Olaparib] (partner 8 µM)
0.514

// same read-out, input: Clc1ccc(Nc2nnc(Cc3ccncc3)c3ccccc23)cc1 [Vatalanib] + CS(=O)(=O)N1CCN(Cc2cc3nc(-c4cccc5[nH]ncc45)nc(N4CCOCC4)c3s2)CC1 [Pictilisib] (partner 1 µM)
0.503
